These data points were gathered from paper PMC6332122.

# tgt: VEGF165 (UniProt P15692-4 27-191)
# Sequence (P15692 other isoform, or with tags, fused parts or gaps): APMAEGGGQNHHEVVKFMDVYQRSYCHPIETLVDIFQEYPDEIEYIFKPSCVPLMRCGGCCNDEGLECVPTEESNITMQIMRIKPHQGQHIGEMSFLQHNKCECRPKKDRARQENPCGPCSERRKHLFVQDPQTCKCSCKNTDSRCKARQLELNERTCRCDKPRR
# method.notes: SPR; SPR: PBS (137 mM NaCl, 2.7 mM KCl, 8 mM Na2HPO4, 2 mM KH2PO4) pH 7.4, 25 °C, protein on CM5; EMSA: 50 mM Tris-HCl, 100 mM KCl, pH 7.5, room temperature, 1 uM RNA, 15% PAGE in TBE
# reported.conditions: protein: commercial; parallel G4
Each entry below lists one item and its recorded log10(Kd) value.
# values: log10(Kd), units nM

>>> val("GGAGGAGGGGGAGGAGGA (structured_RNA) [VEGFA 5' UTR G4]")
2.48

Task: Input GGGGAAGGGGAGCUGGGGCGCAGCGGG (structured_RNA) [PDGFA intronic G4_1] , output reported log10(Kd).
Output: 2.69

Task: Input GGGGGCAGGGCGCAGGAGGGAGAGGGGG (structured_RNA) [VEGFA intronic G4_2] , output reported log10(Kd).
Output: 1.49

Task: Input GGGGUGCGGGGAGCGGGGAAGGG (structured_RNA) [PDGFA intronic G4_2] , output reported log10(Kd).
Output: 2.30

Task: Input GGGCGCGGGGUUUGGGGUGGG (structured_RNA) [PDGFB intronic G4_1] , output reported log10(Kd).
Output: 2.11

Task: Input GGGUUUGGUUGGGCACAGGGCACGGG (structured_RNA) [PDGFB intronic G4_3] , output reported log10(Kd).
Output: 2.64

Task: Input GGGCACUCGGGUAGGGGGAGGACUAGGG (structured_RNA) [PDGFB intronic G4_2] , output reported log10(Kd).
Output: 2.18
